tested on: HIV-1 wild-type (WT) strain (IIIB); test: Anti-HIV activity in MT-4 cells (MTT method), HIV-1 IIIB; assay type: cell-based; settings: selectivity index, ratio CC50/EC50, IIIB
Entries and their SI IIIB values follow.

[
  {
    "compound": "Cc1cc(C#N)cc(C)c1Oc1nc(Nc2ccc(NC(=O)C3CC(O)CN3C(=O)OC(C)(C)C)cc2)nc2ccsc12 (stereo not drawn)",
    "modifier_sign": "=",
    "SI IIIB": 9
  },
  {
    "compound": "Cc1cc(C#N)cc(C)c1Oc1nc(Nc2ccc(NC(=O)CN(C)C(=O)OC(C)(C)C)cc2)nc2ccsc12",
    "modifier_sign": "=",
    "SI IIIB": 7
  },
  {
    "compound": "Cc1cc(C#N)cc(C)c1Oc1nc(Nc2ccc(NC(=O)C3CCCN3)cc2)nc2ccsc12 (stereo not drawn)",
    "modifier_sign": "=",
    "SI IIIB": 513
  },
  {
    "compound": "CNCC(=O)Nc1ccc(Nc2nc(Oc3c(C)cc(C#N)cc3C)c3sccc3n2)cc1",
    "modifier_sign": "=",
    "SI IIIB": 72
  },
  {
    "compound": "Cc1cc(C#N)cc(C)c1Oc1nc(Nc2ccc(NC(=O)[C@@H](N)C(C)C)cc2)nc2ccsc12",
    "modifier_sign": "=",
    "SI IIIB": 157
  },
  {
    "compound": "Cc1cc(C#N)cc(C)c1Oc1nc(Nc2ccc(NC(=O)[C@@H](CC(C)C)NC(=O)OC(C)(C)C)cc2)nc2ccsc12",
    "modifier_sign": ">",
    "SI IIIB": 21
  },
  {
    "compound": "Cc1cc(C#N)cc(C)c1Oc1nc(Nc2ccc(NC(=O)[C@@H](NC(=O)OC(C)(C)C)C(C)C)cc2)nc2ccsc12",
    "modifier_sign": ">",
    "SI IIIB": 251
  },
  {
    "compound": "Cc1cc(C#N)cc(C)c1Oc1nc(Nc2ccc(NC(=O)[C@H](Cc3ccccc3)NC(=O)OC(C)(C)C)cc2)nc2ccsc12",
    "modifier_sign": ">",
    "SI IIIB": 256
  },
  {
    "compound": "Cc1cc(C#N)cc(C)c1Oc1nc(Nc2ccc(NC(=O)[C@@H](N)Cc3ccccc3)cc2)nc2ccsc12",
    "modifier_sign": "=",
    "SI IIIB": 429
  }
]

----------
test: Cytotoxicity in mock-infected MT-4 cells (MTT method); format: cell-based; conditions: human, CC50
# log10(CC50 at 5 days) listing for each entry below
recorded_endpoint: log10(CC50 at 5 days) (log10 of the value in µM)

[
  {
    "compound": "Cc1cc(C#N)cc(C)c1Oc1nc(Nc2ccc(NC(=O)C3CC(O)CN3)cc2)nc2ccsc12 (centres unmarked)",
    "log10(CC50 at 5 days)": 1.43
  },
  {
    "compound": "Cc1cc(C#N)cc(C)c1Oc1nc(Nc2ccc(NC(=O)C3CCCN3)cc2)nc2ccsc12 (centres unmarked)",
    "log10(CC50 at 5 days)": 1.45
  },
  {
    "compound": "Cc1cc(C#N)cc(C)c1Oc1nc(Nc2ccc(NC(=O)CN(C)C(=O)OC(C)(C)C)cc2)nc2ccsc12",
    "log10(CC50 at 5 days)": 0.77
  },
  {
    "compound": "Cc1cc(C#N)cc(C)c1Oc1nc(Nc2ccc(NC(=O)C3CCCN3C(=O)OC(C)(C)C)cc2)nc2ccsc12 (centres unmarked)",
    "log10(CC50 at 5 days)": 2.28
  },
  {
    "compound": "Cc1cc(C#N)cc(C)c1Oc1nc(Nc2ccc(NC(=O)C3CC(O)CN3C(=O)OC(C)(C)C)cc2)nc2ccsc12 (centres unmarked)",
    "log10(CC50 at 5 days)": 1.35
  },
  {
    "compound": "Cc1cc(C#N)cc(C)c1Oc1nc(Nc2ccc(NC(=O)[C@@H](N)Cc3ccccc3)cc2)nc2ccsc12",
    "log10(CC50 at 5 days)": 1.37
  }
]

Source of measurements: paper PMC11354745
